The origin of these recorded values is patent US20250134874A1.

# Test system: 301 cancer cell lines from different tumor types (OncoPanel; HD Biosciences)
# assay.procedure: 2D cell viability inhibition assay (CellTiter-Glo) in cancer cell line panel
# Format: cell-based
# condition.label: Homo sapiens, G-401, G401 cell line
assay.metric: IC50 (nM)
Just the number in nM, nothing appended.

Lab note: CC(C)c1ccc(N(C)c2ccc3c(c2)OCC[C@H]3CNc2cnccc2C(=O)O)cc1 gave IC50 of 4.45

====

# System: 301 cancer cell lines from different tumor types (OncoPanel; HD Biosciences)
# assay.procedure: 2D cell viability inhibition assay (CellTiter-Glo) in cancer cell line panel
# Assay type: cell-based
# condition.label: NCI-H2172, NCIH2172 cell line
pEC50: −log10 of the molar value.
assay.metric: pEC50

Assay 301 cancer cell lines from different tumor types (OncoPanel; HD Biosciences), sample CC(C)c1ccc(N(C)c2ccc3c(c2)OCC[C@H]3CNc2cnccc2C(=O)O)cc1 [Compound 1] , pEC50 read: ≤ 5.00

====

# System: 301 cancer cell lines from different tumor types (OncoPanel; HD Biosciences)
# assay.procedure: 2D cell viability inhibition assay (CellTiter-Glo) in cancer cell line panel
# Type: cell-based
# condition.label: Homo sapiens, HCC1954, HCC1954 cell line
assay.metric: IC50 (nM)
Just the number in nM, nothing appended.

Lab note: CC(C)c1ccc(N(C)c2ccc3c(c2)OCC[C@H]3CNc2cnccc2C(=O)O)cc1 gave IC50 of 40.6

====

# Test system: 301 cancer cell lines from different tumor types (OncoPanel; HD Biosciences)
# assay.procedure: 2D cell viability inhibition assay (CellTiter-Glo) in cancer cell line panel
# Assay type: cell-based
# condition.label: Homo sapiens, U2OS, U2OS cell line
assay.metric: IC50 (nM)
Just the number in nM, nothing appended.

Lab note: CC(C)c1ccc(N(C)c2ccc3c(c2)OCC[C@H]3CNc2cnccc2C(=O)O)cc1 gave IC50 of 9.01

====

# Test system: 301 cancer cell lines from different tumor types (OncoPanel; HD Biosciences)
# assay.procedure: 2D cell viability inhibition assay (CellTiter-Glo) in cancer cell line panel
# Assay type: cell-based
# condition.label: Homo sapiens, JIMT-1, JIMT1 cell line
assay.metric: pEC50
In simple prose, pEC50 is minus the logarithm base ten of a concentration in moles per litre.

Lab note: CC(C)c1ccc(N(C)c2ccc3c(c2)OCC[C@H]3CNc2cnccc2C(=O)O)cc1 [Compound 1] gave pEC50 of 7.33

====

# Tested on: 301 cancer cell lines from different tumor types (OncoPanel; HD Biosciences)
# assay.procedure: 2D cell viability inhibition assay (CellTiter-Glo) in cancer cell line panel
# Assay type: cell-based
# condition.label: Homo sapiens, NCI-H1092, NCIH1092 cell line
assay.metric: IC50 (nM)
Just the number in nM, nothing appended.

Lab note: CC(C)c1ccc(N(C)c2ccc3c(c2)OCC[C@H]3CNc2cnccc2C(=O)O)cc1 [Compound 1] gave IC50 of 7.16

====

# System: 301 cancer cell lines from different tumor types (OncoPanel; HD Biosciences)
# assay.procedure: 2D cell viability inhibition assay (CellTiter-Glo) in cancer cell line panel
# Assay type: cell-based
# condition.label: SNGM cell line
assay.metric: pIC50
In simple prose, pIC50 is minus the logarithm base ten of a concentration in moles per litre.

Assay 301 cancer cell lines from different tumor types (OncoPanel; HD Biosciences), sample CC(C)c1ccc(N(C)c2ccc3c(c2)OCC[C@H]3CNc2cnccc2C(=O)O)cc1 [Compound 1] , pIC50 read: 5.31

====

# Test system: 301 cancer cell lines from different tumor types (OncoPanel; HD Biosciences)
# assay.procedure: 2D cell viability inhibition assay (CellTiter-Glo) in cancer cell line panel
# Type: cell-based
# condition.label: Homo sapiens, CAL-27, 168 h, CAL27; upper aerodigestive tract, squamous cell carcinoma; 168 hours
assay.metric: IC50

Lab note: CC(C)c1ccc(N(C)c2ccc3c(c2)OCC[C@H]3CNc2cnccc2C(=O)O)cc1 gave IC50 of > 10 µM

====

# System: 301 cancer cell lines from different tumor types (OncoPanel; HD Biosciences)
# assay.procedure: 2D cell viability inhibition assay (CellTiter-Glo) in cancer cell line panel
# Type: cell-based
# condition.label: Homo sapiens, SK-MEL-5, SKMEL5 cell line
assay.metric: IC50

Lab note: CC(C)c1ccc(N(C)c2ccc3c(c2)OCC[C@H]3CNc2cnccc2C(=O)O)cc1 gave IC50 of 16.8 nM

====

# System: 301 cancer cell lines from different tumor types (OncoPanel; HD Biosciences)
# assay.procedure: 2D cell viability inhibition assay (CellTiter-Glo) in cancer cell line panel
# Format: cell-based
# condition.label: TE14 cell line
assay.metric: EC50 (nM)
Just the number in nM, nothing appended.

Lab note: CC(C)c1ccc(N(C)c2ccc3c(c2)OCC[C@H]3CNc2cnccc2C(=O)O)cc1 gave EC50 of 2.32

====

# Tested on: 301 cancer cell lines from different tumor types (OncoPanel; HD Biosciences)
# assay.procedure: 2D cell viability inhibition assay (CellTiter-Glo) in cancer cell line panel
# Assay type: cell-based
# condition.label: NCIH1618 cell line
assay.metric: pEC50
In simple prose, pEC50 is minus the logarithm base ten of a concentration in moles per litre.

Lab note: CC(C)c1ccc(N(C)c2ccc3c(c2)OCC[C@H]3CNc2cnccc2C(=O)O)cc1 gave pEC50 of 9.29

====

# Test system: 301 cancer cell lines from different tumor types (OncoPanel; HD Biosciences)
# assay.procedure: 2D cell viability inhibition assay (CellTiter-Glo) in cancer cell line panel
# Type: cell-based
# condition.label: Homo sapiens, HT-1376, HT1376 cell line
assay.metric: EC50 (nM)
Just the number in nM, nothing appended.

Assay 301 cancer cell lines from different tumor types (OncoPanel; HD Biosciences), sample CC(C)c1ccc(N(C)c2ccc3c(c2)OCC[C@H]3CNc2cnccc2C(=O)O)cc1 , EC50 read: 17.9

====

# Test system: 301 cancer cell lines from different tumor types (OncoPanel; HD Biosciences)
# assay.procedure: 2D cell viability inhibition assay (CellTiter-Glo) in cancer cell line panel
# Assay type: cell-based
# condition.label: Homo sapiens, COLO-679, COLO679 cell line
assay.metric: IC50
Reply with the number and its unit after it.

Lab note: CC(C)c1ccc(N(C)c2ccc3c(c2)OCC[C@H]3CNc2cnccc2C(=O)O)cc1 gave IC50 of 2040 nM

====

# Tested on: 301 cancer cell lines from different tumor types (OncoPanel; HD Biosciences)
# assay.procedure: 2D cell viability inhibition assay (CellTiter-Glo) in cancer cell line panel
# Type: cell-based
# condition.label: Homo sapiens, COLO 205, COLO205 cell line
assay.metric: IC50

Lab note: CC(C)c1ccc(N(C)c2ccc3c(c2)OCC[C@H]3CNc2cnccc2C(=O)O)cc1 [Compound 1] gave IC50 of 11.5 nM

====

# System: 301 cancer cell lines from different tumor types (OncoPanel; HD Biosciences)
# assay.procedure: 2D cell viability inhibition assay (CellTiter-Glo) in cancer cell line panel
# Assay type: cell-based
# condition.label: Homo sapiens, NCI-H1573, 168 h, NCIH1573; lung, adenocarcinoma; 168 hours
assay.metric: IC50

Assay 301 cancer cell lines from different tumor types (OncoPanel; HD Biosciences), sample CC(C)c1ccc(N(C)c2ccc3c(c2)OCC[C@H]3CNc2cnccc2C(=O)O)cc1 , IC50 read: > 10 µM

====

# System: 301 cancer cell lines from different tumor types (OncoPanel; HD Biosciences)
# assay.procedure: 2D cell viability inhibition assay (CellTiter-Glo) in cancer cell line panel
# Format: cell-based
# condition.label: Homo sapiens, NUGC-3, NUGC3 cell line
assay.metric: pIC50
In simple prose, pIC50 is minus the logarithm base ten of a concentration in moles per litre.

Lab note: CC(C)c1ccc(N(C)c2ccc3c(c2)OCC[C@H]3CNc2cnccc2C(=O)O)cc1 gave pIC50 of 8.11

====

# System: 301 cancer cell lines from different tumor types (OncoPanel; HD Biosciences)
# assay.procedure: 2D cell viability inhibition assay (CellTiter-Glo) in cancer cell line panel
# Assay type: cell-based
# condition.label: Homo sapiens, KU-19-19, KU1919 cell line
# Method: In a larger screening study, compound 1 was evaluated across a broad cancer cell line panel (OncoPanel; HD Biosciences) composed of 301 cancer cell lines from different tumor types. 2D cell viability inhibition assays were performed in multiwell plates seeded with cells from the panel. […] Cultures were incubated for 168 hours after which the number of viable cells in each test well was assessed using the CellTiter-Glo® Luminescent Cell Viability Assay. […]
assay.metric: IC50 (nM)
Just the number in nM, nothing appended.

Assay 301 cancer cell lines from different tumor types (OncoPanel; HD Biosciences), sample CC(C)c1ccc(N(C)c2ccc3c(c2)OCC[C@H]3CNc2cnccc2C(=O)O)cc1 , IC50 read: 10.3

====

# System: 301 cancer cell lines from different tumor types (OncoPanel; HD Biosciences)
# assay.procedure: 2D cell viability inhibition assay (CellTiter-Glo) in cancer cell line panel
# Format: cell-based
# condition.label: Homo sapiens, WM 266-4, WM2664 cell line
assay.metric: pIC50
In simple prose, pIC50 is minus the logarithm base ten of a concentration in moles per litre.

Lab note: CC(C)c1ccc(N(C)c2ccc3c(c2)OCC[C@H]3CNc2cnccc2C(=O)O)cc1 [Compound 1] gave pIC50 of 7.56
